Kindly state pIC50 for each of the entries shown.
# System tested: PI3K α (p110α/p85α) (Homo sapiens, UniProt P42336)
# Construct: purchased Upstate / Millipore Corporation
# Sequence (P42336 whole entry): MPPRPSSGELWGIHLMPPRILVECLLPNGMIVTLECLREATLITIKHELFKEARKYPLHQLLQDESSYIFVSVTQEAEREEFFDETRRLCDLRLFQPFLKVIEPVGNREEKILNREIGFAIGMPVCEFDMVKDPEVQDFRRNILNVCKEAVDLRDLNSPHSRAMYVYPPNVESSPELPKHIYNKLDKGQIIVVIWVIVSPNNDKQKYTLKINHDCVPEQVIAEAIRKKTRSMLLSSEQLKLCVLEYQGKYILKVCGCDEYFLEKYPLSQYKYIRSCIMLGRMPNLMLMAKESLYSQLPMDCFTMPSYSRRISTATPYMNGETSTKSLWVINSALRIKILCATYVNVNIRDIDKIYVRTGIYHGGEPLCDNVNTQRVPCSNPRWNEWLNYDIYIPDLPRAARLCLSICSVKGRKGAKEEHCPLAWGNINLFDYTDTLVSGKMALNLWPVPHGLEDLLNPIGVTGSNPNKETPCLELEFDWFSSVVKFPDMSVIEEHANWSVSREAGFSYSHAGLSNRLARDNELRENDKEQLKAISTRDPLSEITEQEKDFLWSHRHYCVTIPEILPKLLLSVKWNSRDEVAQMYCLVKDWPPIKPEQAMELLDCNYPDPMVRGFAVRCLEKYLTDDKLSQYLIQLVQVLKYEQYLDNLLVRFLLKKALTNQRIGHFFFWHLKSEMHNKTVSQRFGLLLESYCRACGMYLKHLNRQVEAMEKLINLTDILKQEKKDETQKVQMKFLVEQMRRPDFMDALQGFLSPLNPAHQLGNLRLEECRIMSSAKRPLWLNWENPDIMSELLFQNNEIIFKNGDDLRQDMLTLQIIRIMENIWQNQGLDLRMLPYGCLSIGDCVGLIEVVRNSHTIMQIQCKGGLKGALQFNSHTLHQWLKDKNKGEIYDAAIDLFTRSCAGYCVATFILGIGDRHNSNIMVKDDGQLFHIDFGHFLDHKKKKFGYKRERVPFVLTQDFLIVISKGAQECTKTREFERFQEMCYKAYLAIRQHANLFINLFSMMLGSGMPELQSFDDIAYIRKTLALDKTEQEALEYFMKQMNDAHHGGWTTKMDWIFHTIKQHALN
# Sequence (P27986 whole entry partner): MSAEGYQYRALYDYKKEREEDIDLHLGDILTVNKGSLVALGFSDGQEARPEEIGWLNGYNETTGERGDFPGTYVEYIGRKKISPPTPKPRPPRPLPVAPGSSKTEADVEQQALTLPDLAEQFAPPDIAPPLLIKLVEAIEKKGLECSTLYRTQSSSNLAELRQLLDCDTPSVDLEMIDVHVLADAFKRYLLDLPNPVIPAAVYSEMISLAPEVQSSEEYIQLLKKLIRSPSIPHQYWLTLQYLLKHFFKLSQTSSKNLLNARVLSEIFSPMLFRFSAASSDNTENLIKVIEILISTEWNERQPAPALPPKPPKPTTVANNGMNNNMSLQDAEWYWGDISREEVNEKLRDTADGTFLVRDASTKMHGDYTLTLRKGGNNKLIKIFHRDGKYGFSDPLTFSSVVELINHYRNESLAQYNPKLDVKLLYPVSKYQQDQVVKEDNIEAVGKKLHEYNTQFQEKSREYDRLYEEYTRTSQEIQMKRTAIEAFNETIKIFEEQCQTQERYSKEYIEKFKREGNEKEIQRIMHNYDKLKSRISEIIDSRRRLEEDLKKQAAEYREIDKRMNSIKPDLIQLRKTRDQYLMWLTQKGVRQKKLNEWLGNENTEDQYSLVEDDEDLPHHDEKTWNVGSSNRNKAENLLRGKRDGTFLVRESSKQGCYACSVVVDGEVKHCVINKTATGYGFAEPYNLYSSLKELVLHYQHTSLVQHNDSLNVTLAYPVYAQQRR
# Procedure text: PI 3-Kinase (human) HTRF assay, PI3K α
# Format: biochemical
# Experimental context: read-out: PI3K α IC50
pIC50: −log10 of the molar value.

Request: Request body: readout pIC50, system PI3K α (p110α/p85α) (Homo sapiens, UniProt P42336), query Nc1nc2cc(-c3ccc4ncc(C(=O)N5CC(F)(F)C5)n4c3)ccc2o1 . Return the value.
Response: > 7.00

Request: Write down the reported pIC50 of C[C@H]1CN(c2cnc3ccc(-c4cccc5nc(N)oc45)cc3n2)CCN1 , test system: PI3K α (p110α/p85α) (Homo sapiens, UniProt P42336).
Response: < 5.00

Request: What pIC50 appears in the records for this compound with PI3K α (p110α/p85α) (Homo sapiens, UniProt P42336)? CN1CCN(c2cnc3ccc(-c4ccc5sc(N)nc5c4)cc3n2)CC1
Response: > 6.00

Request: Under PI3K α (p110α/p85α) (Homo sapiens, UniProt P42336): pIC50 value of Nc1nc2cc(-c3ccc4ncc(N5CCC(n6cccn6)CC5)nc4c3)ccc2o1 ?
Response: > 7.00

Request: I'm curious: which pIC50 was measured for Nc1nc2cc(-c3ccc4sc(N)nc4c3)ccc2o1 tested on PI3K α (p110α/p85α) (Homo sapiens, UniProt P42336)?
Response: > 5.00

Request: Provide the documented pIC50 with PI3K α (p110α/p85α) (Homo sapiens, UniProt P42336) as the system for Cc1ncccc1-c1cnc2ccc(-c3ccc4oc(N)nc4c3)cc2n1
Response: > 6.00

Request: Notebook entry, PI3K α (p110α/p85α) (Homo sapiens, UniProt P42336) assay: pIC50 of COc1ccc(-c2ccc3ncc(C(=O)N4CCOCC4)n3c2)cc1NS(=O)(=O)c1ccccc1 = ?
Response: > 5.00

Request: What reported pIC50 corresponds to Nc1nc2cc(-c3ccc4ncc(N5CCS(=O)(=O)CC5)nc4c3)ccc2o1 on PI3K α (p110α/p85α) (Homo sapiens, UniProt P42336)?
Response: > 7.00

Request: Kindly state the measured pIC50 obtained for COc1ncc(-c2ccc3ncc(C(=O)N4CCOCC4)n3c2)cc1NS(=O)(=O)c1ccccc1 with PI3K α (p110α/p85α) (Homo sapiens, UniProt P42336).
Response: > 7.00

Request: GET /values?readout=pIC50&system=PI3K α (p110α/p85α) (Homo sapiens, UniProt P42336)&item= Nc1nc2cc(-c3ccc4ncc(N5CC(C(=O)N6CCN(C7CC7)CC6)C5)nc4c3)ccc2o1
Response: > 7.00

Request: pIC50 of Nc1nc2cc(-c3ccc4ncc(C(=O)N5CCOCC5)cc4c3)ccc2o1 on PI3K α (p110α/p85α) (Homo sapiens, UniProt P42336)?
Response: > 5.00

Request: For the record O=C(c1cnc2ccc(-c3cnc(Cl)c(NS(=O)(=O)c4ccc(F)cc4)c3)cn12)N1CCOCC1 , what value of pIC50 is listed for PI3K α (p110α/p85α) (Homo sapiens, UniProt P42336)?
Response: > 7.00

Request: Recorded pIC50 for Nc1nc2c(-c3ccc4ncc(C(=O)N5CCOCC5)n4c3)cccc2o1 with PI3K α (p110α/p85α) (Homo sapiens, UniProt P42336), please?
Response: > 6.00

Request: Request - read-out pIC50 | tested on PI3K α (p110α/p85α) (Homo sapiens, UniProt P42336) | compound Cc1nc2ccc(-c3ccc4oc(N)nc4c3)cn2c1C(=O)N1CCN(C)CC1
Response: < 5.00

Request: Give the reported pIC50 for CN1CCN(C(=O)c2cnc3ccc(-c4ccc5sc(N)nc5c4)cn23)CC1 (system: PI3K α (p110α/p85α) (Homo sapiens, UniProt P42336)).
Response: > 6.00

Request: Form field - read-out: pIC50; system: PI3K α (p110α/p85α) (Homo sapiens, UniProt P42336); submitted item: CN(C)CC(=O)N1CCN(c2cnc3ccc(-c4ccc5oc(N)nc5c4)cc3n2)CC1 [Compound 139]
Response: > 7.00

Request: Please state recorded pIC50 (tested on PI3K α (p110α/p85α) (Homo sapiens, UniProt P42336)) of Nc1nc2cc(-c3ccc4ncc(N5CC(N6CCNC(=O)C6)C5)nc4c3)ccc2o1
Response: > 7.00

====

# System tested: PI3K γ (p110γ) (Homo sapiens, UniProt P48736)
# Construct: purchased Upstate / Millipore Corporation
# Sequence (P48736 whole entry): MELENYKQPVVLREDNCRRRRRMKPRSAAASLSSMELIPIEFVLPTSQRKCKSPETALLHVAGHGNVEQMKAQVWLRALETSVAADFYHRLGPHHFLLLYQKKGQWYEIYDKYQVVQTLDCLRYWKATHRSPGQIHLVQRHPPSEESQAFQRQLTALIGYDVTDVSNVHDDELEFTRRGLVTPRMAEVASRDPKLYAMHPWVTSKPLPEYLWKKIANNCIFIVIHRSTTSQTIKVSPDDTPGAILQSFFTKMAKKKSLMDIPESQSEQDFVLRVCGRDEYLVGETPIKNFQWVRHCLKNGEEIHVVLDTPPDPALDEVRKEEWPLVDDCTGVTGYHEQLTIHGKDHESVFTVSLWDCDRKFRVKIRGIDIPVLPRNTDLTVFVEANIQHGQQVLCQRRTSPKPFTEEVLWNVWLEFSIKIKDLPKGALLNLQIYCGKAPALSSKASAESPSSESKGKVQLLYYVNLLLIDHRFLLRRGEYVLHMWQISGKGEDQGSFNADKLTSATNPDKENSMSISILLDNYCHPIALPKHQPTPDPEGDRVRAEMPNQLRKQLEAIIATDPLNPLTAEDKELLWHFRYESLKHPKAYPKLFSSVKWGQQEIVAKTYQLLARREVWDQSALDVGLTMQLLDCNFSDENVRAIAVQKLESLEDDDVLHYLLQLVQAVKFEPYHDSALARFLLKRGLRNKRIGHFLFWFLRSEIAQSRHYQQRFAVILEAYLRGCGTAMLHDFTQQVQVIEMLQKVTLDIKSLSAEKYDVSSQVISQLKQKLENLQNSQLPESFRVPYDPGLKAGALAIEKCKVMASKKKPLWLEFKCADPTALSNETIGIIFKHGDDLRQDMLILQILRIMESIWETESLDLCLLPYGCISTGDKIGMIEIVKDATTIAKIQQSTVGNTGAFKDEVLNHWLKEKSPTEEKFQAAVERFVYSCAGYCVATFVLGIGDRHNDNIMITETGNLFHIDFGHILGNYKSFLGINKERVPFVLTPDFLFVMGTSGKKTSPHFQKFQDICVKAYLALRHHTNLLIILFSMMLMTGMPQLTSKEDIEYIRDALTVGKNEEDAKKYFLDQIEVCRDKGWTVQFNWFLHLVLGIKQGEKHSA
# Procedure text: PI 3-Kinase (human) HTRF assay, PI3K γ
# Format: biochemical
# Experimental context: read-out: PI3K γ IC50
Measured attribute: IC50

Request: Record request: IC50 value, item CC(C)Oc1nc(-c2ccc3oc(N)nc3c2)cnc1N [Compound 237]
Response: < 10 µM

Request: Record request: IC50 value, item Nc1nc2cc(-c3ccc4ncc(C(=O)N5CC[C@H](N6CCOCC6)C5)n4c3)ccc2o1 [Compound 465]
Response: < 1 µM

Request: May I ask what IC50 has been recorded for CC(C)N1CCC(n2cnc3ccc(-c4cncc(NS(C)(=O)=O)c4)cc3c2=O)CC1 [Compound 520] ?
Response: > 10 µM

Request: Return reported IC50; argument: Nc1nc2cc(-c3ccc4ncn(CCN5CCOCC5)c(=O)c4c3)ccc2o1 [Compound 289]
Response: < 1 µM

Request: What IC50 value was documented for this compound, O=C(c1cnc2ccc(-c3cnc4cn[nH]c4c3)cn12)N1CCOCC1 [Compound 535] ?
Response: > 10 µM

Request: For the compound shown here, CC1(C)CN(C(=O)c2cnc3ccc(-c4ccc5oc(N)nc5c4)cn23)CCO1 [Compound 513] , give the reported IC50.
Response: < 10 µM

Request: Quick one: IC50 for Nc1nc2cc(-c3ccc4nccc(NC5CCOCC5)c4c3)ccc2o1 [Compound 32] ?
Response: < 10 µM

Request: GET /values?readout=IC50&item= Nc1nc2cc(-c3c[nH]c4nccc(-c5ccncc5)c34)ccc2o1 [Compound 25]
Response: < 10 µM

Request: Give its IC50 value. Item: C[C@@H]1CN(C(=O)C2CN(c3cnc4ccc(-c5ccc6oc(N)nc6c5)cc4n3)C2)CCN1 [Compound 267]
Response: < 1 µM

Request: // query IC50 value for entry Nc1nc2cc(-c3ccc4ncc(N5CCN(CC6CC6)CC5=O)nc4c3)ccc2o1 [Compound 393]
Response: > 10 µM

Request: Quick check: IC50 of Nc1nc2cc(-c3ccc4ncc(C(=O)N5CCC6(C5)OCCO6)n4c3)ccc2o1 [Compound 499] ?
Response: < 10 µM

Request: Recorded IC50 of CCN1CCN(c2cnc3ccc(-c4ccc5oc(N)nc5c4)cc3n2)C(=O)C1 [Compound 391] , please.
Response: > 10 µM

Request: Give the measured IC50 of Nc1nc2cccc(-c3ccc4nccc(-c5ccncc5)c4c3)c2s1 [Compound 17] .
Response: < 0.1 µM

Request: Need IC50 of Nc1nc2cc(-c3ccc4ncc(OC5CCOCC5)nc4c3)ccc2o1 [Compound 49] , thanks.
Response: < 1 µM

Request: I am curious: what IC50 value has been reported for Nc1nc2cc(-c3ccc4ncc(N5CCC(n6ccnc6)CC5)nc4c3)ccc2o1 [Compound 345] ?
Response: < 1 µM

Request: Dear colleague, I am looking for the recorded IC50 of the following compound: CN1CCCN(c2cnc3ccc(-c4ccc5oc(N)nc5c4)cc3n2)CC1 [Compound 136]
Response: < 10 µM

Request: Using the record for C[C@H]1CN(c2cnc3ccc(-c4ccc5oc(N)nc5c4)cc3c2)CCN1 [Compound 396] , report its IC50.
Response: < 10 µM

Request: Need IC50 of Nc1nc2cc(-c3ccc4ncn(C5CCCC5)c(=O)c4c3)ccc2o1 [Compound 256] , thanks.
Response: > 10 µM

Request: Return reported IC50; argument: C[C@H]1CN(c2cnc3ccc(-c4ccc5nc(N)oc5c4)cc3n2)CCN1 [Compound 309]
Response: < 10 µM

Request: I'd like to know its IC50. The compound in question is NC(=O)[C@@H]1CCCN1c1cnc2ccc(-c3ccc4oc(N)nc4c3)cc2n1 [Compound 257]
Response: > 10 µM

Request: IC50 for O=C(c1cnc2ccc(-c3ccc4oc(Nc5ccccc5)nc4c3)cn12)N1CCOCC1 [Compound 407] ?
Response: > 10 µM

Request: For the compound shown here, CC(C)N1CCC(n2cnc3ccc(-c4ccc5oc(N)nc5c4)cc3c2=O)CC1 [Compound 74] , give the reported IC50.
Response: < 10 µM

Request: Form field: reported IC50 of COc1ncc(-c2ccc3ncc(C(=O)N4CCOCC4)n3c2)c2cn[nH]c12 [Compound 517]
Response: < 10 µM

Request: Endpoint output: IC50 of Cn1c(=O)n(-c2ccc(C(C)(C)C#N)cc2)c2c3cc(-c4ccc5oc(N)nc5c4)ccc3ncc21 [Compound 7] . Value?
Response: < 0.1 µM

Request: # lookup: IC50 of CN1CCC(Nc2nc3cc(-c4ccc5ncc(C(=O)N6CCOCC6)n5c4)ccc3o2)CC1 [Compound 408]
Response: > 10 µM

Request: Return reported IC50; argument: CC(=O)N1CCC(Nc2ncnc3ccc(-c4ccc5oc(N)nc5c4)cc23)CC1 [Compound 60]
Response: < 0.1 µM

Request: Report IC50 for C[C@H]1CN(c2nc3cc(-c4ccc5oc(N)nc5c4)ccc3nc2N)CCN1 [Compound 403] please.
Response: > 10 µM

Request: Would you kindly share the measured IC50 for O=C(c1cnc2ccc(-c3ccc4c(Nc5ccccc5)noc4c3)cn12)N1CCOCC1 [Compound 509] ?
Response: > 10 µM

Request: Could you tell me which IC50 is on file for N#Cc1cnc2ccc(-c3ccc4oc(N)nc4c3)cc2c1 [Compound 93] ?
Response: < 1 µM

Request: Any idea what its IC50 is? The compound is CN1CCC(Nc2cnc3ccc(-c4ccc5oc(N)nc5c4)cc3n2)CC1 [Compound 81]
Response: < 1 µM

Request: What value of measured IC50 is listed for Nc1nc2cc(-c3ccc4ncc(N5CCOCC5)n4n3)ccc2o1 [Compound 57] ?
Response: < 10 µM

Request: Reported IC50, compound CC(=O)n1nc(N)c2ccc(-c3ccc4oc(N)nc4c3)cc21 [Compound 426] : ____
Response: > 10 µM

Request: I would be grateful if you could share the reported IC50 for NCC(=O)N1CCN(c2cnc3ccc(-c4ccc5oc(N)nc5c4)cc3n2)CC1 [Compound 192] .
Response: < 1 µM

Request: Any idea what IC50 was measured for Nc1nc2cc(-c3ccc4ncc(C(=O)N5CCC(O)CC5)n4c3)ccc2o1 [Compound 162] ?
Response: < 10 µM

Request: Return reported IC50; argument: CC(C)N1CCC(Nc2ncnc3ccc(-c4ccc5oc(N)nc5c4)cc23)CC1 [Compound 101]
Response: < 10 µM

Data provenance is patent US20150087627A1.
